Target: T1, Human MuSK (R&D Systems, cat. 10189-MK, histidine tag) (human, UniProt O15146 24-495)
T1 construct: Bought protein; also called human monomeric MuSK-6xhis; not shown: histidine tag (6xhis)
T1 sequence: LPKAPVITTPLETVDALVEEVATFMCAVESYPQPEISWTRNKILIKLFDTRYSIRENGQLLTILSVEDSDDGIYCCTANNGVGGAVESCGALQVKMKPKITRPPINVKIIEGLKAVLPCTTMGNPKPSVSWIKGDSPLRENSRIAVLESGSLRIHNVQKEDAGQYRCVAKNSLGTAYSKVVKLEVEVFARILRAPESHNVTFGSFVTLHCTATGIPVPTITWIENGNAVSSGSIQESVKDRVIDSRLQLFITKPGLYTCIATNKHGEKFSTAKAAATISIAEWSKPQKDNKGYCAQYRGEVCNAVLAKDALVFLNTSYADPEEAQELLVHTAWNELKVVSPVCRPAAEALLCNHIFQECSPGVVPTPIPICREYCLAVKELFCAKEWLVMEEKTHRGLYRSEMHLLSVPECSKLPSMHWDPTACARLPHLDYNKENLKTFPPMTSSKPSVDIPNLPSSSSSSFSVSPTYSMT
Experiment: SPR (Biacore), antibody captured on anti-hFc chip; average of 0.3125-10 nM; dissociation pH 7.4
quantity: koff (s⁻¹)

INSERT INTO results (binder, unit_of_measure, observed) VALUES
  ('3F6c (antibody, human IgG1, kappa, L234A L235A, V domains shown) VH: EVQLVESGGGLVKPGGSLRLSCAASGFTFSSYTMDWVRQAPGKGLEWVSSIGSNGDYIYYADSVRGRFTISRDNAKNSLYLQMNSLRAEDTAVYYCARGQLAVAGTHFDYWGQGTLVTVSS VL: DIQMTQSPSSLSASVGDRVTITCRASQKVNKYVNWYQQKPGKAPKLLIYAASTLQSGVPSRFSGSGSGTDFTLTISSLQPEDFATYYCQQSYSPLSTFGQGTKLEIKR', 's⁻¹', '8e-05'),
  ('3D9b (antibody, human IgG1, kappa, L234A L235A, V domains shown) VH: EVQLVESGGGLVKPGGSLRLSCAASGFTFSTYTMHWVRQAPGKGLEWVSSISSRSAYKYYADSVKGRFTISRDNAKNSLYLQMNSLRAEDTAVYYCARDFFQLGPPRFDSWGQGTLVTVSS VL: DIQMTQSPSSLSASVGDRVTITCRASQRISSFLNWYQQKPGKAPKLLIYGASNLQSGVPSRFSGSGSGTDFTLTISSLQPEDFATYYCQQSYSPSYTFGQGTKLEIKR', 's⁻¹', 0.00012),
  ('4D3 (antibody, human IgG1, kappa, L234A L235A, V domains shown) VH: EVQLVESGGGLVKPGGSLRLSCAASGFTFSSYTMTWVRQAPGKGLEWVSSISSGGHYIYYTDSLKGRFTISRDNAKNSLYLQMNSLRAEDTAVYYCARERLLRLGVGFDFWGQGTLVTVSS VL: DIQMTQSPSSLSASVGDRVTITCRASQSISGYLNWYQQKPGKAPKLLIYAASTLQSGVPSRFSGSGSGTDFTLTISSLQPEDFATYYCQQSYSALYTFGQGTKLEIKR', 's⁻¹', 0.00014),
  ('3D10a (antibody, human IgG1, kappa, L234A L235A, V domains shown) VH: EVQLVESGGGLVKPGGSLRLSCAASGFTFSASTMAWVRQAPGKGLEWVSSVSGDSHHIYYADSLKGRFTISRDNAKNSLYLQMNSLRAEDTAVYYCARERLLRLGVGFDSWGQGTLVTVSS VL: DIQMTQSPSSLSASVGDRVTITCRASQRISGFVNWYQQKPGKAPKLLIYAASTLQSGVPSRFSGSGSGTDFTLTISSLQPEDFATYYCQQSYSPLYTFGQGTKLEIKR', 's⁻¹', 0.00016);
